We begin with a simple list: items and their reported inhibition.
assay: M. tuberculosis H37Rv growth inhibitors, H37Rv strain (AID 1626); conditions: hits give high values, concentration not given here;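 note: bacteria incubated seven days before Alamar blue readout; 0% = bacteria only wells and 100% = bacteria with antibiotic wells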
In all, about 220,000 compounds went through this assay and about 2,000 (0.91%) were called active. About 2% were inconclusive and are not listed. These entries were drawn from the full list. Entries with a potency or affinity are not part of this list.

| COMPOUND | inhibition |
| --- | --- |
| COC(=O)COc1c(Cl)cc(Cl)c2ccc(C)nc12 | 70.4% (inactive) |
| NC(=O)[C@@H]1CCOc2c(I)cc([N+](=O)[O-])cc2C(=O)N[C@@H](CO)C(=O)NCC(=O)N1 | -8.7% (inactive) |
| Cc1nc2cc(C(=O)OCC(=O)NC3CCS(=O)(=O)C3)ccc2n1-c1ccccc1 (stereo unspecified) | -9.28% (inactive) |
| CCn1nccc1C(=O)Nc1nccs1 | -3.43% (inactive) |
| O=C(c1ccc(Cl)cc1)c1coc2ccc(O)cc12 | -6.06% (inactive) |
| Cc1ccc2c(Cl)cc(Cl)c(OCC(=O)O)c2n1 | -9.9% (inactive) |
| CCN(c1cccc(C)c1)C(C(=O)Nc1ccc(OC)cc1)c1cc2c(cc1[N+](=O)[O-])OCO2 (stereo unspecified) | 1.06% (inactive) |
| CCCNS(=O)(=O)c1ccc(OCC(=O)Nc2ccc3c(c2)OCO3)cc1 | -3.44% (inactive) |

For O=C(c1ccc2c(c1)[nH]c(=S)n1c3ccccc3nc21)N1CCN(c2ncccn2)CC1 , what is its reported inhibition?
-5.02% (inactive)

# iterate: CCCn1nc(C(=O)OCC(=O)c2c(N)n(C)c(=O)n(C)c2=O)c2ccccc2c1=O
5.18% (inactive)

# iterate: Cc1ccc(N2CN=C3SCC(=O)N3C2)cc1C
73.8% (inactive)
